Where do these numbers come from? They come from ChEMBL document CHEMBL3421604.

# assay system: Somatostatin receptor type 5 (Homo sapiens, UniProt P35346)
# Sequence (P35346 whole entry): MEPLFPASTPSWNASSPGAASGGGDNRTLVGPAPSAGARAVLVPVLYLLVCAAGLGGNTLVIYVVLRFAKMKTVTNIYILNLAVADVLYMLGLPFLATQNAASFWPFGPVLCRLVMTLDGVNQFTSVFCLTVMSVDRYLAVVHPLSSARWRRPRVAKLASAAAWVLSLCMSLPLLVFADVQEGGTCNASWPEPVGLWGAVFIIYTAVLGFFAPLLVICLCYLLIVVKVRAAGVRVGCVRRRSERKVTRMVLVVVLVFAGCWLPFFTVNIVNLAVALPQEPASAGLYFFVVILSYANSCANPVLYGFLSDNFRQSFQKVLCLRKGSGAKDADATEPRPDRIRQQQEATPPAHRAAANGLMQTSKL
# experiment: Displacement of [3-125l-Tyr]-somatostatin-(1 -14) from human recombinant somatostatin 5 receptor expressed in CHO cell membranes incubated for 180 mins
Assign Ki to each entry below.

Example entries begin here.
structure smiles string: Cc1nc(C(C)(C)NC(=O)[C@H]2[C@@H]3CNC[C@@H]32)c2ccccc2n1
assay system: Somatostatin receptor type 5 (Homo sapiens, UniProt P35346)
Ki: > 9.86 µM
--
structure smiles string: CC(C)(NC(=O)[C@H]1[C@@H]2CNC[C@@H]21)c1noc2c(F)cccc12
assay system: Somatostatin receptor type 5 (Homo sapiens, UniProt P35346)
Ki: > 9.85 µM
--
structure smiles string: Cc1cc2ccccc2c(C(C)(C)NC(=O)[C@H]2[C@@H]3CNC[C@@H]32)n1
assay system: Somatostatin receptor type 5 (Homo sapiens, UniProt P35346)
Ki: > 9.85 µM

Qu. Reported Ki for `Cn1nc(C(C)(C)NC(=O)[C@H]2[C@@H]3CNC[C@@H]32)c2ccccc21` : what is it?
Ans. > 9.86 µM
